Each entry below lists one item and its recorded AUC(0-t) value.
assay: Test 4: pharmacokinetic study; format: in vivo; conditions: male SD rat, oral, 10 mg/kg, plasma, 24 hours; read-out: AUC0-t
Respond numerically; units are µg·h/mL and should not be typed.

TEST SMILES: O=C([C@H]1N[C@H]2CC[C@@H]1[C@@H](F)C2)N1CC2(C1)CN(c1c(C(F)(F)F)cnc3sc(CC(F)(F)F)cc13)C2
AUC(0-t) (µg·h/mL): 2.41
--
TEST SMILES: O=C([C@H]1NC2CCC1CC2)N1CC2(C1)CN(c1c(C(F)(F)F)cnc3sc(CC(F)(F)F)cc13)C2
AUC(0-t) (µg·h/mL): 1.21

In: Specify reported AUC(0-t) for the compound shown: O=C([C@H]1N[C@H]2C[C@@H]1[C@@H](F)C2)N1CC2(C1)CN(c1c(C(F)(F)F)cnc3sc(CC(F)(F)F)cc13)C2
Out: 3.75

In: Specify reported AUC(0-t) for the compound shown: N#Cc1cnc2sc(CC(F)(F)F)cc2c1N1CC2(CN(C(=O)[C@H]3N[C@H]4CC[C@@H]3C(F)(F)C4)C2)C1
Out: 0.668

In: Specify reported AUC(0-t) for the compound shown: O=C([C@H]1N[C@@H]2CC[C@H]1C2)N1CC2(C1)CN(c1c(C(F)(F)F)cnc3sc(CC(F)(F)F)cc13)C2
Out: 1.97
